- study-target: T1, full-length hCDCP1 with N-terminal c-Myc tag (expression vector GS01), on Ba/F3-hCDCP1 cells or … (human, UniProt Q9H5V8 30-836)
- T1 construct: also called human CDCP1; hCDCP1 forced expression cells
- T1 sequence: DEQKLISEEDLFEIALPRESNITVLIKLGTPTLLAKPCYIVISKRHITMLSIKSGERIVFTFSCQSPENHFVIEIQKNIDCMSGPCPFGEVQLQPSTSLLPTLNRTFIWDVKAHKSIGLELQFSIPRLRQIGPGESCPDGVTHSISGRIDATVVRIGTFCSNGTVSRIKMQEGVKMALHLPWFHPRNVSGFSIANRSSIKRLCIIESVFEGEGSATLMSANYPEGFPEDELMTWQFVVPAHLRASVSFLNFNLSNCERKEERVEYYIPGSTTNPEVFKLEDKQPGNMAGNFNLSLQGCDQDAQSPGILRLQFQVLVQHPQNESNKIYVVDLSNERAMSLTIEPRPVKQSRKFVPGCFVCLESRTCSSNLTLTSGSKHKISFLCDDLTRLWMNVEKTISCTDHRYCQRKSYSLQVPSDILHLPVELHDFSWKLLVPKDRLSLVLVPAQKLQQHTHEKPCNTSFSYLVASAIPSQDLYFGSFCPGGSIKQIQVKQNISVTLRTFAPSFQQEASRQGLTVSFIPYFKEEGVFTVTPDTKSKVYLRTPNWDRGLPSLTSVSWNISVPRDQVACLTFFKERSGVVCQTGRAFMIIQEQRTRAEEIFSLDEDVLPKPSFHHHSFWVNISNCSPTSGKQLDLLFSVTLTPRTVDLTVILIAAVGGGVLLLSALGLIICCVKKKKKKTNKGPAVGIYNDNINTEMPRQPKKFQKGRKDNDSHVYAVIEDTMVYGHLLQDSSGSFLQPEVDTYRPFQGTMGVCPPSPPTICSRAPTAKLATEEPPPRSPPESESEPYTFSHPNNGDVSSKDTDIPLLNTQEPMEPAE
- procedure-details: flow cytometry on Ba/F3-hCDCP1 cells
readout-type: binding result

INSERT INTO assay_data (binder, readout_type, result) VALUES
  ('mh12A041HCoriA/LCori (antibody, human IgG1, kappa, V domains shown, mouse-human chimeric antibody, human IgG1/kappa constant regions) VH: EVQLQESGPGILQPSQTLSLTCSFSGFSLSTFGMGVSWIRQPSGKGLEWLAHIYWDDDKRYNPSLKSRLTISKDTSSNQVFLKITSVDTADTATYYCARSGSYYGSSLDCWGQGTTLTVSS VL: DVLMTQTPLSLPVSLGDQASISCRSSQSIVHSNGNTYLEWYLQKPGQSPKLLIYKVSNRFSGVPDRFSGSGSGTDFTLKISRVEAEDLGVYYCFQGSHVPWTFGGGTKLEIKR', 'binding result', 'binds'),
  ('mh14A043HCv1/LCv1 (antibody, human IgG1, kappa, V domains shown, mouse-human chimeric antibody, human IgG1/kappa constant regions) VH: EVQLQESGAELVRPGALVKLSCKASGFNIKDYYMNWVKQRPEQGLEWIGWIDPESGNTIYDPKFQGKASITADTSSNTAYLQLSSLTSEDTAVYYCYGSSYRFTYWGQGTLVTVSS VL: QIVLIQSPALMSASPGEKVTMTCSASSSVSYLYWYQQKPRSSPKPWIYLTSNLASGVPARFSGSGSGTSYSLTISSMEAEDAATYYCQQWSSNPFTFGSGTKLEIKR', 'binding result', 'binds');
